Measured C4 cleavage IC50 (4% human serum) values are reported for all entries that follow.
target: human MASP-2 of human serum (human, UniProt O00187 16-686); test: cell-based or functional assay
Sequence (O00187 16-686 limits assumed): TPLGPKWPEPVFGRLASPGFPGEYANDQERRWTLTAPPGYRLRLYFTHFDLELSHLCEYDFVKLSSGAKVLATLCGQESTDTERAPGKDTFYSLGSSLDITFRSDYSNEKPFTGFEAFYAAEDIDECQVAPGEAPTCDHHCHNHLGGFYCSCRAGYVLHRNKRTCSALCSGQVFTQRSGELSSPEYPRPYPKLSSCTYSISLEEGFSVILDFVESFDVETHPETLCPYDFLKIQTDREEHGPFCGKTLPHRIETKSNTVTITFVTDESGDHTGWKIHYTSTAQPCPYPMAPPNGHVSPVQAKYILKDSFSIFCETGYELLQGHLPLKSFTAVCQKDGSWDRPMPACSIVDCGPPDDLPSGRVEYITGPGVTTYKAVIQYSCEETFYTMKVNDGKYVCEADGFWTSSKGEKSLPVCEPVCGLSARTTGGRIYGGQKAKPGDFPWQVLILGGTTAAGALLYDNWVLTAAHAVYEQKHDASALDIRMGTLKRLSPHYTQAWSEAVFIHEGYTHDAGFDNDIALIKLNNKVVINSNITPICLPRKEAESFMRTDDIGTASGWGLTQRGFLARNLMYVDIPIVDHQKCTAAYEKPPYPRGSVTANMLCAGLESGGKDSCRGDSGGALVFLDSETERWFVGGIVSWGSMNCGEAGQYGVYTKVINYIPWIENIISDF

BINDER	OUTPUT_UNIT	C4 cleavage IC50 (4% human serum)
humanized anti-human MASP-2 monoclonal antibody 126-Hu (antibody, human IgG4 S228P, kappa, V domains shown) VH: QVQLVESGGGVVQPGRSLRLSCAASGFTFSSFGMHWVRQAPGKGLEWVAYISSGSSSSFYVDTVKGRFTISRDNSKNTLYLQMNSLRAEDTAVYYCARGDRNFEVWGQGTTVTVSS VL: DIQMTQSPSSLSASVGDRVTITCRASQSVSSSRYSYMHWFQQKPGKAPKLLIYHASNLESGVPSRFSGSGSGTDFTLTISSLQPEDFATYYCQQSWEVPWTFGQGTKLEIKR	nM	0.0598
humanized anti-human MASP-2 monoclonal antibody 124-Hu (antibody, human IgG4 S228P, kappa, V domains shown) VH: QVQLQESGPGLVKPSQTLSLTCTVSGYSITSDYAWNWIRQPPGKGLEWMGYISYSGRTSYNPSLKSRLTISRDTSKNQFSLKLSSVTAADTAVYYCARHYGDFWGQGTTVTVSS VL: DIQMTQSPSSLSASVGDRVTITCKASQNVDTNVAWYQQKPGKAPKLLIYSASYRYSGVPSRFSGSGSGTDFTLTISSLQPEDFATYYCQQYNSYPSTFGQGTKLEIKR	nM	0.214
humanized anti-human MASP-2 monoclonal antibody 100-Hu (antibody, human IgG4 S228P, kappa, V domains shown) VH: QVQLVESGGGVVQPGGSLRLSCAASGFTFSNFGIHWVRQAPGKGLEWVAYISSGGSAVFYADTVKGRFTISRDNSKNTLYLQMNSLRAEDTAVYYCAKSDRYFDYWGQGTTVTVSS VL: EIVLTQSPATLSLSPGERATLSCRASQSVSSSSYRYIHWYQQKPGQAPRLLIYYASNLESGIPARFSGSGSGTDFTLTISSLEPEDFAVYYCQHSWETPWTFGQGTKLEIKR	nM	0.281
humanized anti-human MASP-2 monoclonal antibody 136-Hu (antibody, human IgG4 S228P, kappa, V domains shown) VH: QVQLVQSGAEVKKPGASVKVSCKASGNTFTNYWMHWIRQAPGQGLEWMGYINPNTGYTDFNQKFKDRVTLTADKSTSTAYMELSSLRSEDTAVYYCTLQLGRNFDYWGQGTTVTVSS VL: DIQMTQSPSSLSASVGDRVTITCRASQSVSSSRSTYIHWYQQKPGKAPKLLIYYSSNLESGVPSRFSGSGSGTDFTLTISSLQPEDFATYYCHQSWEIPYTFGQGTKLEIKR	nM	0.311

This collection of values is drawn from patent US20240043563A1.
